# Read-out: glucuronosyltransferase (UGT1A1), UGT1A1 (gene 54658)
# assay-summary: CLD_UGT1A1_24hr: CellzDirect (CLD) Gene Expression Assay for glucuronosyltransferase (UGT1A1) at 24 hours (AID 2283696)
Records with an inconclusive call do not appear. Active and inactive are the calls of the source. Rule for the calls: active = hit-call score of the fitted dose curve at least 0.9, where 1 is the maximum; inconclusive = response in the unintended direction; inactive = score below 0.9.
Outcomes you can answer with include only these: active, inactive

Example entries begin here.
COCc1cnc(C2=NC(C)(C(C)C)C(=O)N2)c(C(=O)O)c1 (configuration not stated)    inactive
CCOC(=O)C(C)OC(=O)c1cc(Oc2ccc(C(F)(F)F)cc2Cl)ccc1[N+](=O)[O-] (configuration not stated)    active
CCOc1nc(C(Cl)(Cl)Cl)ns1    inactive
C=CCOC(=O)C(C)(C)OC(=O)c1cc(-n2c(=O)cc(C(F)(F)F)n(C)c2=O)ccc1Cl    inactive
Nc1c(Cl)c(F)nc(OCC(=O)O)c1Cl    inactive
CCCCC(C#N)(Cn1cncn1)c1ccc(Cl)cc1 (configuration not stated)    inactive

Let us examine a further case.
Q) Which result was noted for this molecule in the test: Cc1cnc(C2=NC(C)(C(C)C)C(=O)N2)c(C(=O)O)c1 (configuration not stated)
A) inactive

###

# Read-out: Monocyte Chemoattractant Protein-1 (MCP1), CCL2 (gene 6347)
# assay-summary: BSK_SAg_MCP1: BioMAP Diversity Plus: SAg Assay for Monocyte Chemoattractant Protein-1 (MCP1) Biomarker Activity (AID 2283090)
# details: primary human HUVEC with PBMC; actives raise or lower the signal
Calls of active or inactive are those of the source. How the source made its calls: active means hit-call score of the fitted dose curve at least 0.9, where 1 is the maximum; inactive means score below 0.9.
Outcomes you can answer with include only these: 1.0 for active, 0.0 for inactive

Example entries begin here.
CC(C)N1C(=O)c2ccccc2NS1(=O)=O    0.0
COCC(=O)N(c1c(C)cccc1C)C(C)C(=O)OC (stereo not given)    0.0
O=C(Nc1ccccc1-c1ccc(Cl)cc1)c1cccnc1Cl    0.0
Nc1cnn(-c2ccccc2)c(=O)c1Cl    0.0
Cc1nc(N(C)C)nc(OC(=O)N(C)C)c1C    0.0

Q) Which result was noted for this molecule in the test: CC(C)C1(C)N=C(c2ncccc2C(=O)O)NC1=O (stereo not given)
A) 0.0

Q) Which result was noted for this molecule in the test: CCC(C)n1c(=O)[nH]c(C)c(Br)c1=O (stereo not given)
A) 0.0

###

# Read-out: Monocyte Chemoattractant Protein-1 (MCP1), CCL2 (gene 6347)
# assay-summary: BSK_4H_MCP1: BioMAP Diversity Plus: 4H Assay for Monocyte Chemoattractant Protein-1 (MCP1) Biomarker Activity (AID 2283018)
# details: primary human endothelial cells (HUVEC); actives raise or lower the signal
Calls of active or inactive are those of the source. The calls were made as follows: active = hit-call score of the fitted dose curve at least 0.9, where 1 is the maximum; inactive = score below 0.9.
Outcomes you can answer with include only these: active, inactive

Example entries begin here.
Cc1ccc(N=CN(C)C=Nc2ccc(C)cc2C)c(C)c1    active
CCSC(=O)N1CCCCCC1    inactive
CC(C)NC(=O)N1CC(=O)N(c2cc(Cl)cc(Cl)c2)C1=O    inactive
COc1cc(OC)nc(NC(=O)NS(=O)(=O)c2ncccc2OCC(F)(F)F)n1    inactive
CN=C=S    inactive
COP(=O)(OC)O/C(C)=C/C(=O)N(C)C    inactive

Q) Which result was noted for this molecule in the test: CNC(=O)Oc1cccc2ccccc12
A) inactive

Q) Which result was noted for this molecule in the test: CCOP(=O)(OCC)Oc1nc(Cl)c(Cl)cc1Cl
A) inactive

Q) Which result was noted for this molecule in the test: CC(C)=CC1C(C(=O)OCc2coc(Cc3ccccc3)c2)C1(C)C (stereo not drawn)
A) inactive

Q) Which result was noted for this molecule in the test: CSC(=O)c1c(C(F)F)nc(C(F)(F)F)c(C(=O)SC)c1CC(C)C
A) active

Q) Which result was noted for this molecule in the test: COc1cc(Cl)c(OC)cc1Cl
A) inactive

Q) Which result was noted for this molecule in the test: O=C(Nc1ccccc1-c1ccc(Cl)cc1)c1cccnc1Cl
A) inactive

Q) Which result was noted for this molecule in the test: CS(=O)(=O)c1cc(C(F)(F)F)ccc1C(=O)c1cnoc1C1CC1
A) inactive

###

# Read-out: urokinase plasminogen activator (uPA), PLAU (gene 5328)
# assay-summary: BSK_BE3C_uPA: BioMAP Diversity Plus: BE3C Assay for urokinase plasminogen activator (uPA) Biomarker Activity (AID 2283038)
# details: primary human bronchial epithelial cells; actives raise or lower the signal
# Experimental: BSK_BE3C is a cell-based, multiplexed-readout assay that uses bronchial epithelial cell, a human lung primary cell, with measurements taken at 24 hours after chemical dosing in a 96-well plate.BSK_BE3CA is an assay component measured in the BSK_BE3C assay. It measures uPA antibody related to regulation of gene expression using ELISA technology.Data from the assay component BSK_BE3CA was analyzed into 1 assay endpoint. […]
Activity calls are given as the source filed them. Rule for the calls: active = hit-call score of the fitted dose curve at least 0.9, where 1 is the maximum; inactive = score below 0.9.
Outcomes you can answer with include only these: class 1 = active, class 0 = inactive

Q) Which result was noted for this molecule in the test: CCOP(=S)(OCC)Oc1nc(Cl)n(C(C)C)n1
A) class 0

Q) Which result was noted for this molecule in the test: CC1(C)CON(Cc2ccccc2Cl)C1=O
A) class 0

Q) Which result was noted for this molecule in the test: Cc1c(COC(=O)[C@@H]2[C@H](/C=C(\Cl)C(F)(F)F)C2(C)C)cccc1-c1ccccc1
A) class 0

Q) Which result was noted for this molecule in the test: CCCCOCN(C(=O)CCl)c1c(CC)cccc1CC
A) class 1

Q) Which result was noted for this molecule in the test: C=CCOC(=O)C(C)(C)OC(=O)c1cc(-n2c(=O)cc(C(F)(F)F)n(C)c2=O)ccc1Cl
A) class 0

Q) Which result was noted for this molecule in the test: COCC(=O)N(c1c(C)cccc1C)C(C)C(=O)OC (stereo unspecified)
A) class 0

Q) Which result was noted for this molecule in the test: CO/N=C(/C1=NOCCO1)c1ccccc1Oc1ncnc(Oc2ccccc2Cl)c1F
A) class 0

###

# Read-out: Monokine induced gamma interferon (MIG), CXCL9 (gene 4283)
# assay-summary: BSK_CASM3C_MIG: BioMAP Diversity Plus: CASM3C Assay for Monokine induced gamma interferon (MIG) Biomarker Activity (AID 2283048);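 note: MIG protein level measured by ELISA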
# details: primary human coronary artery smooth muscle cells; actives raise or lower the signal
Activity calls are given as the source filed them. How the source made its calls: active means hit-call score of the fitted dose curve at least 0.9, where 1 is the maximum; inactive means score below 0.9.
Outcomes you can answer with include only these: 1 (active), 0 (inactive)

Example entries begin here.
Nc1c(Cl)c(F)nc(OCC(=O)O)c1Cl    0
CCC(C)n1c(=O)[nH]c(C)c(Br)c1=O (configuration not stated)    0
CCCCC(O)(Cn1cncn1)c1ccc(Cl)cc1Cl (configuration not stated)    0
OC(c1ccc(Cl)cc1)(c1ccc(Cl)cc1)C(Cl)(Cl)Cl    1
CCCC(=NOCC)C1=C(O)CC(CC(C)SCC)CC1=O (configuration not stated)    0
CCN(CC)c1nc(C)cc(OP(=S)(OC)OC)n1    0
Cc1ccc(N=CN(C)C=Nc2ccc(C)cc2C)c(C)c1    0
CCN(CC)C(=O)C(C)Oc1cccc2ccccc12 (configuration not stated)    0

Q) Which result was noted for this molecule in the test: CC1(C)CCC(=Cc2ccc(Cl)cc2)C1(O)Cn1cncn1 (configuration not stated)
A) 0

Q) Which result was noted for this molecule in the test: CCNP(=S)(OC)O/C(C)=C/C(=O)OC(C)C (configuration not stated)
A) 0

Q) Which result was noted for this molecule in the test: CC1(C)C(C=C(Cl)Cl)C1C(=O)OC(C#N)c1cccc(Oc2ccccc2)c1 (configuration not stated)
A) 0

Q) Which result was noted for this molecule in the test: CC1(C)C(C(=O)OC(C#N)c2cccc(Oc3ccccc3)c2)C1(C)C (configuration not stated)
A) 0

###

# target-or-test-system: human Serotonin, 5-Hydroxytryptamine Receptor 5A (5HT5A), HTR5A (gene 3361)
# assay-summary: NVS_GPCR_h5HT5A: NovaScreen (NVS) G Protein-Coupled Receptor Assay for human Serotonin, 5-Hydroxytryptamine Receptor 5A (5HT5A) (AID 2283251)
Records with an inconclusive call do not appear. Calls of active or inactive are those of the source. How the source made its calls: active means hit-call score of the fitted dose curve at least 0.9, where 1 is the maximum; inconclusive means response in the unintended direction; inactive means score below 0.9.
Outcomes you can answer with include only these: 1 for active, -1 for inactive

Example entries begin here.
CC(C)=CC1C(C(=O)OCc2coc(Cc3ccccc3)c2)C1(C)C (stereo not drawn)    1
CCCCC(O)(Cn1cncn1)c1ccc(Cl)cc1Cl (stereo not drawn)    -1
OC(c1ccc(Cl)cc1)(c1ccc(Cl)cc1)C(Cl)(Cl)Cl    -1
CCOC(=O)C(C)OC(=O)c1cc(Oc2ccc(C(F)(F)F)cc2Cl)ccc1[N+](=O)[O-] (stereo not drawn)    1

Q) Which result was noted for this molecule in the test: CO/N=C(/C1=NOCCO1)c1ccccc1Oc1ncnc(Oc2ccccc2Cl)c1F
A) -1

Q) Which result was noted for this molecule in the test: CC(C)N1C(=O)N(c2ccccc2)CSC1=NC(C)(C)C
A) -1

Q) Which result was noted for this molecule in the test: O=C1C2CC=CCC2C(=O)N1SC(Cl)(Cl)Cl (stereo not drawn)
A) -1

Q) Which result was noted for this molecule in the test: CN/C(=N\[N+](=O)[O-])NCc1cnc(Cl)s1
A) -1
